Tested on: Enterococcus faecalis 28
Construct: 28
Assay: microbe, parasite or virus in culture
Design: CLSI broth microdilution MIC in MHB-II
Conditions: Enterococcus faecalis, 28, 18 h, read-out: MIC
attributeMeasured: MIC

Some entries whose results are on file:
INSERT INTO results (smi, attributemeasured, val) VALUES
  ('CCCCCCCCCCCCCCCC(=O)N[C@@H](CCCNC(=N)N)C(=O)Nc1ccc(CN[C@H](C(=O)O)[C@H](O[C@@H]2O[C@H](CN)[C@@H](O)[C@H]2O)[C@H]2O[C@@H](n3ccc(=O)[nH]c3=O)[C@H](O)[C@@H]2O)cc1', 'MIC', '< 0.06 µg/mL'),
  ('CCCCCCCCCCCCCCCC(=O)N[C@@H](CCCCN)C(=O)Nc1ccc(CN[C@H](C(=O)O)[C@H](O[C@@H]2O[C@H](CN)[C@@H](O)[C@H]2O)[C@H]2O[C@@H](n3ccc(=O)[nH]c3=O)[C@H](O)[C@@H]2O)cc1', 'MIC', '< 0.06 µg/mL');

input: Field request: MIC | item: CCCCCCCCCCCCCCCC(=O)N[C@@H](CCCNC(=N)N)C(=O)Nc1cccc(CN[C@H](C(=O)O)[C@H](O[C@@H]2O[C@H](CN)[C@@H](O)[C@H]2O)[C@H]2O[C@@H](n3ccc(=O)[nH]c3=O)[C@H](O)[C@@H]2O)c1
output: < 0.06 µg/mL

---

In this section we review reported MIC values for a set of compounds.
System: P. aeruginosa ATCC 27853
Construct: ATCC 27853
Assay: microbe, parasite or virus in culture
Details: Pseudomonas aeruginosa, ATCC27853

INSERT INTO assay_data (smi, val) VALUES
  ('CC1(C)S[C@@H]2[C@H](NC(=O)[C@H](N)c3ccccc3)C(=O)N2[C@H]1C(=O)O', '> 50 µM'),
  ('CN[C@H](CC(C)C)C(=O)N[C@H]1C(=O)N[C@@H](CC(N)=O)C(=O)N[C@H]2C(=O)N[C@H]3C(=O)N[C@H](C(=O)N[C@H](C(=O)O)c4cc(O)cc(O)c4-c4cc3ccc4O)[C@H](O)c3ccc(c(Cl)c3)Oc3cc2cc(c3O[C@@H]2O[C@H](CO)[C@@H](O)[C@H](O)[C@H]2O[C@H]2C[C@](C)(N)[C@H](O)[C@H](C)O2)Oc2ccc(cc2Cl)[C@H]1O', '> 50 µM');

Please find the next compound below.
input: Field request: MIC | item: CC[C@H]1OC(=O)[C@H](C)[C@@H](O[C@H]2C[C@@](C)(OC)[C@@H](O)[C@H](C)O2)[C@H](C)[C@@H](O[C@@H]2O[C@H](C)C[C@H](N(C)C)[C@H]2O)[C@](C)(O)C[C@@H](C)C(=O)[C@H](C)[C@@H](O)[C@]1(C)O
output: > 50 µM
